Test system: RAW-Dual
Experiment: NF-kB SEAP reporter activity, fold change vs agonist alone; cytotoxicity flag (confluency mask): not cytotoxic; higher = enhanced NF-kB activity
Settings: agonist: ODN 1826 (TLR9) 0.5 ug/mL
In all, about 2,900 compounds were measured (“NF-kB SEAP reporter activity, fold change vs agonist alone”: median about 0.99, highest 2% from about 2.6 on). What follows is part of a selection rich in the highest values, with near analogues and random picks from the rest.
Give NF-kB SEAP reporter activity for every item shown.
Numbers only.

Some entries whose results are on file:
{"MOLECULE": "Cc1noc(C)c1-c1ccc(-c2cc(C(N)=O)c(NC(N)=O)s2)c(OC2CCNC2)c1 (stereo unspecified) (library stock concentration (final ~1000-fold dilution): 10 mM)", "ASSAYED_TARGET": "RAW-Dual", "OBSERVATION_TYPE": "NF-kB SEAP reporter activity", "MEASURED_VALUE": 0.449}
{"MOLECULE": "CC1(C(=O)O)CCC2(C)CCC3(C)C(=CC(=O)C4C5(C)CCC(OC6OC(C(=O)O)C(O)C(O)C6OC6OC(C(=O)O)C(O)C(O)C6O)C(C)(C)C5CCC43C)C2C1.N.N (stereo unspecified) (library stock concentration (final ~1000-fold dilution): 10 mM)", "ASSAYED_TARGET": "RAW-Dual", "OBSERVATION_TYPE": "NF-kB SEAP reporter activity", "MEASURED_VALUE": 0.88}

Batch: NF-kB SEAP reporter activity for all items listed.
1. Cc1cc(N=Nc2ccc(S(=O)(=O)Nc3ccccn3)cc2)c(N)cc1O (library stock concentration (final ~1000-fold dilution): 10 mM)
2. COc1c(O)c(C)cc2c1C(=O)c1c(O)cccc1C2=O (library stock concentration (final ~1000-fold dilution): 10 mM)
3. CC(C)(C)C1NC(=O)OC2CCCC2OC/C=C/C(F)(F)c2nc3ccccc3nc2OC2CC(C(=O)NC3(C(=O)NS(=O)(=O)C4(C)CC4)CC3C(F)F)N(C2)C1=O (stereo unspecified) (library stock concentration (final ~1000-fold dilution): 10 mM)
4. CC1(c2nc3c(C(N)=O)cccc3[nH]2)CCCN1 (stereo unspecified) (library stock concentration (final ~1000-fold dilution): 10 mM)
5. CCn1c(-c2nonc2N)nc2c(C#CC(C)(C)O)ncc(OCC3CCCNC3)c21 (stereo unspecified) (library stock concentration (final ~1000-fold dilution): 10 mM)
6. Cc1cc(Cl)ccc1OCCCC(=O)NO (library stock concentration (final ~1000-fold dilution): 10 mM)
7. CC(C)(C)C(=O)N1N=CCC1c1ccccc1 (stereo unspecified) (library stock concentration (final ~1000-fold dilution): 10 mM)

Result:
2.32
1.02
2.62
0.972
0.943
0.823
0.917

Batch: NF-kB SEAP reporter activity for all items listed.
1. C=CC1CC1(NC(=O)C1CC2CN1C(=O)C(C(C)(C)C)NC(=O)OC1CC1CCCCCc1nc3ccc(OC)cc3nc1O2)C(=O)NS(=O)(=O)C1CC1 (stereo unspecified) (library stock concentration (final ~1000-fold dilution): 10 mM)
2. O=C(O)C1=C/C(=N\Nc2ccc(S(=O)(=O)Nc3ccccn3)cc2)C=CC1=O (library stock concentration (final ~1000-fold dilution): 10 mM)
3. O=C(NC1=CC(=O)[C@@H]2O[C@@H]2[C@@H]1O)c1ccccc1O (library stock concentration (final ~1000-fold dilution): 10 mM)
4. CCOC(=O)COc1ccc(/C=C2\SC(=S)NC2=O)cc1OC (library stock concentration (final ~1000-fold dilution): 10 mM)
5. COc1ccc(S(=O)(=O)Nc2cc(-c3c(O)ccc4ccccc34)c(O)c3ccccc23)cc1 (library stock concentration (final ~1000-fold dilution): 10 mM)

Result:
1: 1.46; 2: 1.26; 3: 0.718; 4: 0.889; 5: 1.09

Batch: NF-kB SEAP reporter activity for all items listed.
1. Fc1ccc(CNc2ncnc3ccc(F)cc23)cc1 (library stock concentration (final ~1000-fold dilution): 10 mM)
2. Nc1ncnc2[nH]nc(Nc3ccc(F)cc3)c12 (library stock concentration (final ~1000-fold dilution): 10 mM)
3. O=C(O)c1ccc(CSc2nc(-c3ccccc3)cc(N3CCN(c4ccccc4Cl)CC3)n2)cc1 (library stock concentration (final ~1000-fold dilution): 10 mM)
4. COc1ccc2cccc(CCNC(C)=O)c2c1 (library stock concentration (final ~1000-fold dilution): 10 mM)

Result:
1. 1.19
2. 1.43
3. 0.584
4. 1.09

Batch: NF-kB SEAP reporter activity for all items listed.
1. COc1cc2oc(=O)ccc2c(OC)c1CC(O)C(C)(C)O (stereo unspecified) (library stock concentration (final ~1000-fold dilution): 10 mM)
2. C=CC1(C)CC(OC(=O)CSC(C)(C)CNC(=O)C(N)C(C)C)C2(C)C(C)CCC3(CCC(=O)C32)C(C)C1O.Cl (stereo unspecified) (library stock concentration (final ~1000-fold dilution): 10 mM)
3. Nc1nc(NCCNc2ncc(-n3ccnc3)c(-c3ccc(Cl)cc3Cl)n2)ccc1[N+](=O)[O-] (library stock concentration (final ~1000-fold dilution): 10 mM)

Result:
1: 0.972; 2: 0.971; 3: 2.96
